# EXPERIMENT SUMMARY: Oral bioavailability in rat
# Type: ADME, organism-based
# MEASUREMENT PARAMETERS: Sprague-Dawley, in vivo
MEASUREMENT NAME: bioavailability (%)
Please reply with the bare figure in % and do not write the unit itself.

Prompt: Could you share which bioavailability value was measured for CN1C(=O)C(C(=O)Nc2nncs2)c2cc3occc3cc21 (stereo unspecified) ?
Completion: 41

====

# EXPERIMENT SUMMARY: Turbidimetric solubility at pH 7
# Format: ADME, organism-based, Homo sapiens
MEASUREMENT NAME: solubility kinetic (µg/mL)
Please reply with the bare figure in µg/mL and do not write the unit itself.

Prompt: Could you share which solubility kinetic value was measured for CN1C(=O)C(C(=O)Nc2nncs2)c2cc3occc3cc21 (configuration not stated) ?
Completion: 55
